Listing: Bmax of selected binders
# tested_on: T1, human BCMA on cells (human, UniProt Q02223 1-184)
# T1 construct: also called hBCMA; BCMA on NCI-H929, ARP-1, OPM-2, U266B1, MM.1S, RPMI-8226 cells
# T1 sequence: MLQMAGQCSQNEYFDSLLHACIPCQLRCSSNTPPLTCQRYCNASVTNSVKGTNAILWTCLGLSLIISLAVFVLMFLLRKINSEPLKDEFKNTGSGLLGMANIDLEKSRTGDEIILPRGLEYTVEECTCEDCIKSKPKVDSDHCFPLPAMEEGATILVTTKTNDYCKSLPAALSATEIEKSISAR
# assay_details: FACS, NCI-H929 cells

Consider the following illustrative entries.
{"binder": "10G5 (antibody, V domains shown, Chicken HybriFree-derived antibody; also called Antibody 31) VH: AVTLDESGGGLQTPGGVLSLVCKASGFTFSSFNMFWVRQAPGKGLEWVAYISNDGSSTSYGPAVKGRATISRDNGQSTVRLQLNNLRAEDTATYFCAKTTCIGSGGCIDTWGHGTEVIVSS VL: ALTQPSSVSANPGETVKITCSGGNYDYGWYQQKSPGSAPVTLIYYNNKRPSDIPSRFSGSKSGSTGTLTITGVQAEDEAIYYCANVDSTDDVFGAGTTLTVL", "observation_type": "Bmax", "reported": "25800 MFI"}
{"binder": "10E10 (antibody, V domains shown, Chicken HybriFree-derived antibody; also called Antibody 46) VH: AVTLDESGGGLQTPGGGLSLVCKASGFTFSSYGMGWMRQAPGKGLEFVARINSGGSSYTDYGSAVKGRATISRDDGQSTVRLQLNNLRAEDTGIYYCTRGGGGASIDGWGHGTEVIVSS VL: ALTQPSSVSANPGETVKITCSGGGNYAGSYYYGWYQQKSPGSAPLTVIYNSNNRPSDIPSRFSGSLSGSTGTLTITGVRAEDEAVYFCGGFDSSTDAIFGAGTTLTVL", "observation_type": "Bmax", "reported": "3440 MFI"}

Moving on to another binder below.
Reported Bmax of 10H1 (antibody, V domains shown, Chicken HybriFree-derived antibody; also called Antibody 45) VH: AVTLDESGGGLQTPGGALSLVCKASGFTFSGYGMGWMRQAPGKGLEYVARINSAGSDTDYGAAVKGRATISRDNGQSTVRLQLNNLRAEDTATYFCTRGGGGASIDGWGHGTEVIVSS VL: ALTQPSSVSANPGETVKITCSGGGNYYGSYYYGWYQQKAPGSAPVTVIYNNNNRPSNIPSRFSGSKSGSTGTLTITGVQAEDEAVYFCGGFDSSSDAIFGAGTTLTVL : 22500 MFI
